testDescription: modulators of MEP2-GFP levels in yeast, confirmation, S. cerevisiae, flow cytometry GFP, cherry picks (AID 2272);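 note: ratio of well signal to plate DMSO mean so 100% equals DMSO level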
conditions: S. cerevisiae MEP2-GFP strain, 3 h, at 10 µM, stronger effect = higher value
# GFP response vs DMSO listing for each entry below
Report only the number, with the unit % understood.

See these solved cases before continuing.
O=C(OCCOc1ccccc1)c1n[nH]c2ccccc12 : 97.5
COc1ccc(C(=O)/C=C2/C(=O)Nc3ccccc32)cc1OC : 99.5

Exercise: For the compound O=C(Oc1c(Cl)cc(Cl)c2cccnc12)c1cccc([N+](=O)[O-])c1 , what GFP response vs DMSO is on record?
Solution: 133

---

testDescription: modulators of CIT2-GFP expression in yeast, confirmation, S. cerevisiae, GFP fusion, cherry picks, mother/daughter gates (AID 2274)
conditions: S. cerevisiae CIT2-GFP strain, flow cytometry, 3 h; measured here: daughter cell gate; at 10 µM; stronger effect = higher value
# GFP response, % of DMSO listing for each entry below
Report only the number, with the unit % understood.

Exercise: For the compound CCCNC(=O)COC(=O)c1ccc(S(=O)(=O)N2CCCC2)cc1 , what GFP response, % of DMSO is on record?
Solution: 90.5

Exercise: For the compound CCC(=O)Oc1oc(-c2ccccc2)nc1C=Nc1ccc(C)cc1 , what GFP response, % of DMSO is on record?
Solution: 110

Exercise: For the compound O=C(CN1CCN(Cc2ccccc2Cl)C1=O)NC1CCCCCCC1 , what GFP response, % of DMSO is on record?
Solution: 106

---

testDescription: RPL19A-GFP modulators, yeast TOR pathway, confirmation, cell-based, S. cerevisiae, flow cytometry, cherry picks, mother/daughter gates (AID 2270)
conditions: S. cerevisiae RPL19A-GFP strain, 3 h, measured here: daughter cell gate, at 10 µM, stronger effect = lower value, 100 = same GFP as DMSO wells
assayEndpoint: GFP response vs DMSO (%)
Report only the number, with the unit % understood.

COc1ccc(Cc2nnc(NC(=O)c3ccccc3F)s2)cc1 : 96.4
COc1cccc(NC(=O)/C=C/c2ccc([N+](=O)[O-])cc2)c1 : 97.6
CCc1ccc(C(=O)COC(=O)c2n[nH]c3ccccc23)cc1 : 97.3
O=C(NC(=S)NNC(=O)c1cnccn1)c1ccc(Cl)cc1 : 95
COc1ccc(/C=C/C(=O)c2ccc(OC)cc2O)cc1 : 100
CCCn1c(=N)c(C(=O)NC2CCCC2)cc2c(=O)n3cccc(C)c3nc21 : 85.2
O=C(OCC(=O)N1CCN(C(=O)c2ccco2)CC1)c1cc(-c2cccc(Br)c2)nc2ccccc12 : 75.5
CCCn1c(=O)c(C(=O)NCc2ccc(OC)c(OC)c2)c(O)c2ccccc21 : 97.6

Exercise: For the compound Cc1cccc(C)c1OCCOC(=O)c1n[nH]c2ccccc12 , what GFP response vs DMSO is on record?
Solution: 97

Exercise: For the compound COc1cc(/C=C2\N=C(c3ccccc3)OC2=O)ccc1OC(C)=O , what GFP response vs DMSO is on record?
Solution: 93.5

---

testDescription: superoxide lowering in aged yeast cells, pilot screen, validation compound set (AID 2706);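 note: yeast exposed to compound for one week at 30 degrees C before staining; 100% = mean of all compound wells on the same plate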
conditions: S. cerevisiae aging, superoxide DHE fluorescence; at 10 µM, stronger effect = lower value
assayEndpoint: superoxide response (% of plate) (%)
Report only the number, with the unit % understood.

See these solved cases before continuing.
CC(C)C[C@H](NC(=O)NC(C)C)C(=O)O : 111
COc1ccc(CC(=O)N2CC3(C)CC2CC(C)(C)C3)cc1OC (stereo unspecified) : 91.8
O=c1cc(-c2ccc3c(c2)OCCO3)oc2ccc(Cl)cc12 : 98.9
CCOC(=O)/C=C1\NC(C)(C)Cc2cc(OC)c(OC)cc21 : 102
O=C(C1CCCCC1)N1CC(=O)N2CCc3ccccc3C2C1 (stereo unspecified) : 109

Continue with the compound presented below.
Exercise: For the compound OC(CCN1CCCCC1)(c1ccccc1)C1CCCCC1 (stereo unspecified) , what superoxide response (% of plate) is on record?
Solution: 97.3

---

subjectOfTest: Beta-adrenergic receptor kinase 1 (Homo sapiens) (UniProt P25098)
Sequence (P25098 whole entry, looked up): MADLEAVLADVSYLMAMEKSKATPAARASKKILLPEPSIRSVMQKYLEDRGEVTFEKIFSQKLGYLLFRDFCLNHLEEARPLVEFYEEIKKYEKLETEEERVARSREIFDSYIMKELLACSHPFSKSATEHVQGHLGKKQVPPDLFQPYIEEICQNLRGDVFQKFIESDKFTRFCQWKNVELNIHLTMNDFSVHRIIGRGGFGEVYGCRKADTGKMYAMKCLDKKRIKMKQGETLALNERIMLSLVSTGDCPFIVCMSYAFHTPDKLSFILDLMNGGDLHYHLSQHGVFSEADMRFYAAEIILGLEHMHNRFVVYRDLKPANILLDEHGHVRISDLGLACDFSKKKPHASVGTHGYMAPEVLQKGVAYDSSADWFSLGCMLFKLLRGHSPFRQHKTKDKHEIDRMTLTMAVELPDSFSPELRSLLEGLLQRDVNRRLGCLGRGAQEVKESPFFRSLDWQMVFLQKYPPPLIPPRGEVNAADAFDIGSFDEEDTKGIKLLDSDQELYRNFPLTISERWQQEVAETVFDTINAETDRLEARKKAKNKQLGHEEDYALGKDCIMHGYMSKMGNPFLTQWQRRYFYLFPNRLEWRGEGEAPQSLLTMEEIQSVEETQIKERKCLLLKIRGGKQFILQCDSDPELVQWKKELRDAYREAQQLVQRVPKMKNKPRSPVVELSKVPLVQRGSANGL
testDescription: GRK2 binders displacing RNA aptamer, biochemical, validation, human GRK2, bead flow cytometry (AID 488806)
conditions: bead-bound GRK2, FAM-aptamer displacement, at 10 µM, stronger effect = higher value
assayEndpoint: aptamer binding inhibition (%)
Report only the number, with the unit % understood.

See these solved cases before continuing.
O=C(O)C[C@@H](O)C(=O)O : 2
Cc1cccc(N(C)C(=S)Oc2ccc3ccccc3c2)c1 : 0
Oc1ccc(Oc2ncc(Cl)cc2Cl)cc1 : 2
CCOC(=O)c1cccc(C(=O)OCC)n1 : 0
CCOC(=O)NN1C(=O)c2ccccc2NC1c1ccc(OC)c(OC)c1 (stereo unspecified) : 2
Cc1ccccc1NC(=O)C1c2ccccc2Oc2ccccc21 : 2

Exercise: For the molecule COc1ccc(-c2[nH]ncc2C=O)cc1OC , what aptamer binding inhibition is on record?
Solution: 2

Exercise: For the molecule O[C@@H](CNC[C@H](O)c1ccccc1)c1ccccc1 , what aptamer binding inhibition is on record?
Solution: -3

Exercise: For the molecule NC(=O)N1c2ccccc2C=Cc2ccccc21 , what aptamer binding inhibition is on record?
Solution: 3

Exercise: For the molecule CCc1cn([C@H]2C[C@H](O)[C@@H](CO)O2)c(=O)[nH]c1=O , what aptamer binding inhibition is on record?
Solution: -1

Exercise: For the molecule CC(C)NNC(=O)c1ccncc1 , what aptamer binding inhibition is on record?
Solution: 2

Exercise: For the molecule O=C(O)C1Sc2[nH]c(=O)sc2C2c3ccc(O)cc3OC(=O)C12 (stereo unspecified) , what aptamer binding inhibition is on record?
Solution: 1

Exercise: For the molecule CCOC(=O)c1cc2cc3ccccc3cc2[nH]1 , what aptamer binding inhibition is on record?
Solution: 1

Exercise: For the molecule C[C@]12CCC(=O)C[C@@H]1CC[C@@H]1[C@@H]2CC[C@]2(C)C=CC[C@@H]12 , what aptamer binding inhibition is on record?
Solution: 2

Exercise: For the molecule CCN(CC)C(=O)c1ccc(O)c(OC)c1 , what aptamer binding inhibition is on record?
Solution: 0

Exercise: For the molecule CC(C)OC(=O)C(C)(C)Oc1ccc(C(=O)c2ccc(Cl)cc2)cc1 , what aptamer binding inhibition is on record?
Solution: -1

---

testDescription: yeast TOR pathway RPL19A-GFP modulators, primary screen, cell-based, S. cerevisiae, multiplex flow cytometry (AID 1862);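 note: lower values mimic rapamycin by blocking the RPL19A rise seen in DMSO cells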
conditions: S. cerevisiae RPL19A-GFP strain, flow cytometry fluorescence, 3 h; at 10 µM; stronger effect = lower value
Inconclusive results are not listed.
# percent of DMSO control GFP listing for each entry below
Report only the number, with the unit % understood.

C/C(=N\N=C1\NC(=O)C(CC(=O)Nc2ccc(Cl)cc2)S1)c1ccco1 (centres undefined) : 105

Continue with the compound presented below.
Exercise: For the compound Cn1c(=O)c2c(ncn2Cc2ccccc2)n(C)c1=O , what percent of DMSO control GFP is on record?
Solution: 100

---

# GFP response vs DMSO listing for each entry below
testDescription: RPL19A-GFP modulators, yeast TOR pathway, confirmation, cell-based, S. cerevisiae, flow cytometry, cherry picks, mother/daughter gates (AID 2270)
conditions: S. cerevisiae RPL19A-GFP strain, 3 h, measured here: daughter cell gate, at 10 µM, stronger effect = lower value, 100 = same GFP as DMSO wells
Report only the number, with the unit % understood.

C/C(=N\NC(=O)c1cc2ccccc2cc1O)c1ccccn1 : 103
COc1ccccc1OC(C)C(=O)Nc1ccccc1C(=O)NCC1CCCO1 (stereo not drawn) : 95.2

Continue with the compound presented below.
Exercise: For the compound Cc1cccc(CN2CCSc3sccc3C2=O)c1 , what GFP response vs DMSO is on record?
Solution: 95.7

---

testDescription: modulators of CIT2-GFP expression in yeast, confirmation, S. cerevisiae, GFP fusion, cherry picks, mother/daughter gates (AID 2274)
conditions: S. cerevisiae CIT2-GFP strain, flow cytometry, 3 h; at 10 µM; stronger effect = higher value
The source made the active and inactive calls.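 How the source made its calls: active means GFP response above 150% of the DMSO level; inconclusive means fewer than 70 events counted for a yeast strain; inactive means the rest.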
# GFP response, % of DMSO listing for each entry below

Cc1ccccc1Oc1ncnc2oc(-c3ccccc3)cc12 : 99.7% (inactive)
CS(=O)(=O)N1N=C(c2ccco2)CC1c1ccc(Br)cc1 (stereo not given) : 103% (inactive)
CCCc1[nH]nc2c1C(c1ccc(OC)c(CSC3=NCCS3)c1)C(C#N)=C(N)O2 (stereo not given) : 95% (inactive)
CCOC(=O)c1sc(NC(=O)c2ccco2)nc1-c1ccccc1 : 98.6% (inactive)

Exercise: For the compound O=C1CC(SCCO)C(=O)N1c1ccc(Oc2ccccc2)cc1 (stereo not given) , what GFP response, % of DMSO is on record?
Solution: 104% (inactive)

---

testDescription: inhibitors of CD8+ T cell-vesicle binding, pilot screen, LFA-1/ICAM-1 modulator project, MLPCN validation set, flow cytometry (AID 2523)
conditions: 2C mouse CD8+ T cells, at 7 µM, stronger effect = lower value; measured here: CD8+/vesicle+ event percentage
assayEndpoint: double positive events (%)
Report only the number, with the unit % understood.

See these solved cases before continuing.
CCOc1ccc(CC2c3cc(OCC)c(OCC)cc3CCN2C(=O)CN2CCN(C)CC2)cc1OCC (stereo unspecified) : 61.7
CCc1cc2c(=O)c(-c3ccc(F)cc3)c(C)oc2cc1OCC(=O)O : 70.6
C(=C/c1nccc2c1[nH]c1ccccc12)/c1ccc2c(c1)OCO2 : 58.5

Exercise: For the molecule COc1ccccc1-c1c(C(F)(F)F)oc2cc(OC(=O)c3ccc([N+](=O)[O-])cc3)ccc2c1=O , what double positive events is on record?
Solution: 61.5

Exercise: For the molecule COc1ccc(CC(=O)N2CC3(C)CC2CC(C)(C)C3)cc1OC (stereo unspecified) , what double positive events is on record?
Solution: 64.1

Exercise: For the molecule COc1ccc(O)c(N)c1 , what double positive events is on record?
Solution: 70.2

Exercise: For the molecule Fc1cc(F)cc(NC(=S)NCCCN2CCOCC2)c1 , what double positive events is on record?
Solution: 59.3

Exercise: For the molecule COc1ccc(-c2c(C)c3ccc(OCC(C)=O)cc3oc2=O)cc1 , what double positive events is on record?
Solution: 46.6

Exercise: For the molecule CC(=O)OC[C@H]1O[C@@H](n2ncc(=O)[nH]c2=O)[C@H](OC(C)=O)[C@@H]1OC(C)=O , what double positive events is on record?
Solution: 53.4

Exercise: For the molecule Cn1c(=O)oc2cc(S(=O)(=O)N3CCc4ccccc4C3)ccc21 , what double positive events is on record?
Solution: 58.4

Exercise: For the molecule CC(=O)C1=C(NC(=O)c2ccc(C(F)(F)F)cc2)C[C@@H]2[C@H]1C2(C)C , what double positive events is on record?
Solution: 60
